Read-out: flavin-containing dimethylaniline monooxygenases 3 (FMO3), FMO3 (gene 2328)
Experiment: LTEA_HepaRG_FMO3: Life Technologies and Expression Analysis (LTEA) Assay for flavin-containing dimethylaniline monooxygenases 3 (FMO3) using HepaRG (AID 2283453);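 as to AC50: differentiated human HepaRG liver cells in serum-free induction medium; FMO3 transcript by TaqMan qRT-PCR normalized to ACTB GAPDH and POLR2A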
Details: mRNA level, 48 h; actives raise or lower the signal
Activity calls are given as the source filed them. The calls were made as follows: active = hit-call score of the fitted dose curve at least 0.9, where 1 is the maximum; inactive = score below 0.9.

- compound: "OC(CCl)CCl"
  AC50: "inactive"
- compound: "CCCCCCCCCC"
  AC50: "inactive"
- compound: "CC(C)CCCCCCOC(=O)C1CCCCC1C(=O)OCCCCCCC(C)C (configuration not stated)"
  AC50: "inactive"
- compound: "CCCCN1C(=O)[C@@H]([C@H](O)C2CCCCC2)NC(=O)C12CCN(Cc1ccc(Oc3ccc(C(=O)O)cc3)cc1)CC2"
  AC50: "3.54 µM (active)"
- compound: "CC(C)c1nnc2ccc(-c3ocnc3-c3cc(F)ccc3F)cn12"
  AC50: "63.6 µM (active)"
- compound: "OC(Cn1cncn1)(Cn1cncn1)c1ccc(F)cc1F"
  AC50: "inactive"
- compound: "c1ccc2cc3ccccc3cc2c1"
  AC50: "inactive"
- compound: "C=CN1CCCC1=O"
  AC50: "inactive"
- compound: "Cc1nccn1-c1ccc(Sc2cccc(C3(C(N)=O)CCOCC3)c2)cc1"
  AC50: "9.6 µM (active)"
- compound: "Cn1c(=O)c2[nH]cnc2n(C)c1=O"
  AC50: "inactive"
- compound: "CCCOc1ccc(S(=O)(=O)N2CCN(CC)CC2)cc1-c1nc2c(CC)n(Cc3ccccn3)nc2c(=O)[nH]1"
  AC50: "inactive"
- compound: "COc1cc2c(c(OC)c1OC)-c1ccc(OC)c(=O)cc1[C@@H](NC(C)=O)CC2"
  AC50: "0.0477 µM (active)"

====

Read-out: Monokine induced gamma interferon (MIG), CXCL9 (gene 4283)
Experiment: BSK_hDFCGF_MIG: BioMAP Diversity Plus: hDFCGF Assay for Monokine induced gamma interferon (MIG) Biomarker Activity (AID 2283063)
Settings: primary human foreskin fibroblasts; actives raise or lower the signal
Calls of active or inactive are those of the source. The calls were made as follows: active = hit-call score of the fitted dose curve at least 0.9, where 1 is the maximum; inactive = score below 0.9.
Possible outcomes: T (active), F (inactive)

- molecule: "OC[C@H]1O[C@@H]2O[C@H]3[C@H](O)[C@@H](O)[C@@H](O[C@H]4[C@H](O)[C@@H](O)[C@@H](O[C@H]5[C@H](O)[C@@H](O)[C@@H](O[C@H]6[C@H](O)[C@@H](O)[C@@H](O[C@H]7[C@H](O)[C@@H](O)[C@@H](O[C@H]1[C@H](O)[C@H]2O)O[C@@H]7CO)O[C@@H]6CO)O[C@@H]5CO)O[C@@H]4CO)O[C@@H]3CO"
  labelClass: "F"
- molecule: "CCCCCCCC1CCC(=O)O1 (stereo not given)"
  labelClass: "F"
- molecule: "O=S(=O)(O)CCC(F)(F)C(F)(F)C(F)(F)C(F)(F)C(F)(F)C(F)(F)F"
  labelClass: "F"
- molecule: "OCCC(F)(F)C(F)(F)C(F)(F)C(F)(F)F"
  labelClass: "F"
- molecule: "Cc1ccc(S(=O)(=O)NC(=O)NN2CCCCCC2)cc1"
  labelClass: "F"
- molecule: "CCOC(N)=O"
  labelClass: "F"
- molecule: "O=C(Cl)C(F)(F)C(F)(F)C(F)(F)C(=O)Cl"
  labelClass: "F"
- molecule: "Cn1c(=O)c2[nH]cnc2n(C)c1=O"
  labelClass: "F"
- molecule: "c1ccc(C(O[C@@H]2CCCN(CCc3ccc4c(c3)OCO4)C2)c2ccccc2)cc1"
  labelClass: "F"
- molecule: "OCc1c[nH]c2ccccc12"
  labelClass: "F"
- molecule: "c1ccc2ncccc2c1"
  labelClass: "F"
- molecule: "Cc1nc(-c2ccccn2)ncc1C(=O)Nn1cc(C)c2cc(F)ccc21"
  labelClass: "F"
- molecule: "O=S1(=O)CCCO1"
  labelClass: "F"
- molecule: "CCn1nc(C)c2c1C(=O)NCC(c1ccc(O)cc1)=N2"
  labelClass: "F"
- molecule: "c1ccc2cc3ccccc3cc2c1"
  labelClass: "F"
- molecule: "NCC(F)(F)C(F)(F)C(F)(F)C(F)(F)F"
  labelClass: "F"
- molecule: "CNC(C)=O"
  labelClass: "F"
- molecule: "CCCCCCCCN(C)C"
  labelClass: "F"
- molecule: "FC(F)=C(F)C(F)(F)C(F)(F)C(F)(F)C(F)(F)C(F)(F)C(F)(F)F"
  labelClass: "F"
- molecule: "CCCCCCCCCC"
  labelClass: "F"
- molecule: "CC(=O)c1ccccc1"
  labelClass: "F"
- molecule: "OCCOCCOCCO"
  labelClass: "F"
- molecule: "C[C@@H](Oc1ccc(CNC(=O)c2cccnc2Oc2ccc3c(c2)OCO3)c(F)c1)C(=O)O"
  labelClass: "F"
- molecule: "S=P(N1CC1)(N1CC1)N1CC1"
  labelClass: "F"
- molecule: "C=CN1CCCC1=O"
  labelClass: "F"
- molecule: "CCc1cccc(CC)c1N"
  labelClass: "F"
- molecule: "COc1cc(C(C)C)c2c(c1)S(=O)(=O)N(COc1cc(=O)n3cccc(OCCN4CCCCC4)c3n1)C2=O"
  labelClass: "T"
- molecule: "c1ccc2c(c1)-c1cccc3c1c-2cc1ccccc13"
  labelClass: "F"
- molecule: "CCCCCCOC(=O)CC(CC(=O)OCCCCCC)(OC(=O)CCC)C(=O)OCCCCCC"
  labelClass: "F"
- molecule: "CCCCCCCC/C=C\\CCCCCCCC(=O)OC[C@@H](O)[C@H]1OC[C@H](O)[C@H]1O"
  labelClass: "F"
- molecule: "NC(N)=O"
  labelClass: "F"
- molecule: "C[Si](C)(C)C(F)(F)C(F)(F)C(F)(F)F"
  labelClass: "F"
- molecule: "O=C1CN(N=Cc2ccc([N+](=O)[O-])o2)C(=O)N1"
  labelClass: "F"
- molecule: "Nc1ccn([C@@H]2O[C@H](CO)[C@@H](O)[C@@H]2O)c(=O)n1"
  labelClass: "F"
- molecule: "C=CCc1cc(S(=O)(=O)c2ccc(O)c(CC=C)c2)ccc1O"
  labelClass: "T"
- molecule: "OC(CCl)CCl"
  labelClass: "F"
- molecule: "OC[C@H]1O[C@@](CO)(O[C@H]2O[C@H](CO)[C@@H](O)[C@H](O)[C@H]2O)[C@@H](O)[C@@H]1O"
  labelClass: "F"
- molecule: "CC(C)CC(C)O (stereo not given)"
  labelClass: "F"
- molecule: "CCCCCOC(C)=O"
  labelClass: "F"
- molecule: "Cc1cccc(O)c1C"
  labelClass: "F"

The origin of these recorded values is PubChem BioAssay (EPA / NIEHS).
